assay: chemical genetic growth profiling, strain panel (AID 1159580);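 also: tested at 20 µM; growth read once vehicle control cultures reached saturation at 30 °C; lower values mean less growth of the strain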; conditions: S. cerevisiae deletion strains, growth OD, locus YLR085C, strain ARP6
The campaign covered roughly 5,500 compounds. About 2,000 (36%) were called active. Another 18% or so got no clear call; they are omitted. Rule as the data show it: active = normalized growth mostly below about 0.91 (no sharp cut-off); inconclusive = no clear call, values can overlap the other calls; inactive = mostly above about 0.92. The list shows a part of the results.
A correct response names exactly one class from T for active, F for inactive

molecule | group_label
N[C@@H](C(=O)O)c1ccccc1 | F
CCOC(=O)C(=CNc1ccccc1N1CCOCC1)C(=O)OCC | T
CCOC(=O)C(=CNNC(=O)c1ccccc1-n1cccc1)C(=O)OCC | F
COc1ccc(NC(=O)c2cc(C(F)(F)F)cc(C(F)(F)F)c2)cn1 | F
CCO/C=C1\SC(=S)N(CCc2ccccc2)C1=O | T

Shifting focus to the molecule that follows.
# fetch the recorded call for CC1=C(OS(=O)(=O)c2cc(C)c(Cl)cc2Cl)C(=O)CC1 here
F
